Molecular target: T1, PfAMA1 (DI-DII of Plasmodium falciparum Apical Membrane Antigen 1, 3D7, residues 104-438) (Plasmodium falciparum, UniProt Q7KQK5 104-438)
T1 construct: codon-optimized synthetic gene; also called native PfAMA1; PfAMA1 DI-DII construct
T1 sequence: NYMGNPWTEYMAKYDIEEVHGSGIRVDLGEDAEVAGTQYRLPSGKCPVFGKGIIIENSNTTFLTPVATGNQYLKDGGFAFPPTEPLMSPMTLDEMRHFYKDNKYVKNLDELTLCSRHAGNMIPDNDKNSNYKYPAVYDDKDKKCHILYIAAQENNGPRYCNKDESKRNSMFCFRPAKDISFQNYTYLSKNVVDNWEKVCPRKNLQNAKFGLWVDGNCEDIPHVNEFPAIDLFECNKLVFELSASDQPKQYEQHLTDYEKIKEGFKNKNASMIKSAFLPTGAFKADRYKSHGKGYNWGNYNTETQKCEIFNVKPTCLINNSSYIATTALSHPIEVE
Assay: fluorescence polarisation; anisotropy titration at 20°C; 10 nM F*PfRON2sp1 titrated with protein (0 to 10 μM); PBS pH 7.4, at least 0.1% BSA
Settings: both partners purified
Bridge positions count the residues as written; N and C are the ends. Ends that are not written are not given here. * marks the point of attachment. 5FAM = O=C1OC2(c3ccc(O)cc3Oc3cc(O)ccc32)c2ccc(C(=O)*)cc21
ASSAY ENDPOINT: pKd
Bear in mind: pKd is minus log10 of a mol/L concentration; give just that figure.

Consider the binder 5FAM-DITQQAKDIGAGPVASCFTTRMSPPQQICLNSVVNTALS (disulfide 17-29, Rhoptry Neck Protein 2 (RON2) of Plasmodium falciparum, residues 2021-2059; also called labeled peptide; labeled probe; source: synthetic peptide, bought: Kinexus (purity ≥ 95%)) [F*PfRON2sp1 (39 aa) [2021-2059], fluorescein-labeled PfRON2sp1 peptide] and give its measured pKd.
7.51

These data points were gathered from paper PMC4701444.
